- assayed-target: recombinant human glucokinase (Homo sapiens, UniProt P35557)
- Construct: Full-length glucokinase (beta cell isoform) was His-tagged at the N-terminus and purified by a Ni column followed by size exclusion chromatography as described above; His tag; made in house; host or cells: E. coli BL21(DE3), vector pBCGK
- Sequence (P35557 1-465): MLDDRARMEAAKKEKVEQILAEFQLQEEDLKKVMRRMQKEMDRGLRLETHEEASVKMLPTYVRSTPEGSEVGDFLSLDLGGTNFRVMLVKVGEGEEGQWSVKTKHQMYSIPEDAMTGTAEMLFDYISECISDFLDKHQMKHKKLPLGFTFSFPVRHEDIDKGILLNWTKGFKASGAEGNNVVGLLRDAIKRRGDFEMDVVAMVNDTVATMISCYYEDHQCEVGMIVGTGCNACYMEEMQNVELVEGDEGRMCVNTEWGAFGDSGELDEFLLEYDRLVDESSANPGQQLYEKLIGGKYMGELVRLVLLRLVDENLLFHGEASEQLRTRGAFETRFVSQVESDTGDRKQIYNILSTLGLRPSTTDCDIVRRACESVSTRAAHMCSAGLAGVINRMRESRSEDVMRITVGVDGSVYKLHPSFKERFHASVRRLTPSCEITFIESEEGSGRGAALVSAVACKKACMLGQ
- assay-notes: Assay 2: Evaluating Activator Potency in a Matrix Assay at Multiple Glucose Concentrations
- Assay type: biochemical
- assay-conditions: Assay 2 matrix assay; 16 glucose concentrations; intrinsic EC50 = concentration affording a 50% reduction in the enzyme's Km (for glucose); read-out: Glucokinase EC50
pEC50: −log10 of the molar value.
observed-property: pEC50

// solved cases for pEC50 follow
Cn1ccc(NC(=O)c2cc(Oc3cnc(C(=O)N4CCCC4)cn3)c3cn(C)nc3c2)n1 [Example 1BO] | 6.60
COc1cnc(NC(=O)c2cc(Oc3cnc(C(=O)N(C)C)c(F)c3)c3cn(C)nc3c2)cn1 [Example 1BE] | 6.34
CCS(=O)(=O)N(C)c1cnc(Oc2cc(C(=O)Nc3ccc(C)cn3)cc3nn(C)cc23)cn1 [Example 1AY] | 6.17
CCn1cc2c(Oc3cnc(NS(C)(=O)=O)cn3)cc(C(=O)Nc3ccc(C)cn3)cc2n1 [Example 1AT] | 5.31
CCn1cc2c(Oc3ccc(S(C)(=O)=O)cc3)cc(C(=O)Nc3ccn(C)n3)cc2n1 [Example 1CC] | 5.92
CC(C)n1cc2c(Oc3cnc(C(=O)N4CCC4)cn3)cc(C(=O)Nc3cnn(C)n3)cc2n1 [Example 1BY] | 4.76
CC(C)n1cc2c(Oc3cnc(C(=O)N4CCC4)cn3)cc(C(=O)Nc3ccn(C)n3)cc2n1 [Example 1BT] | 6.01
CNS(=O)(=O)c1ccc(Oc2cc(C(=O)Nc3cnc(OC)cn3)cc3nn(C)cc23)cc1 [Example 1BN] | 6.16

a = CN(C)S(=O)(=O)c1ccc(Oc2cc(C(=O)Nc3ccn(C)n3)cc3nn(C)cc23)cn1 [Example 1AM]
b = CC(=O)N(C)c1cnc(Oc2cc(C(=O)Nc3ccc(C)cn3)cc3nn(C)cc23)cn1 [Example 1CN]
Q) Choose between a and b : whose measured pEC50 value is numerically larger? Give the label under which the chosen entry appears.
A) b
(b: 5.63, a: 5.41)

P = CCn1cc2c(Oc3ccc(S(N)(=O)=O)cc3)cc(C(=O)Nc3cnc(C)cn3)cc2n1 [Example 1CR]
Q = CCn1cc2c(Oc3ccc(S(N)(=O)=O)cc3)cc(C(=O)Nc3ccn(C)n3)cc2n1 [Example 1CQ]
Q) Choose between P and Q : whose measured pEC50 value is numerically larger? Give the label under which the chosen entry appears.
A) P
